- target: Peroxisome proliferator-activated receptor gamma (Homo sapiens, UniProt P37231)
- Sequence (P37231 whole entry): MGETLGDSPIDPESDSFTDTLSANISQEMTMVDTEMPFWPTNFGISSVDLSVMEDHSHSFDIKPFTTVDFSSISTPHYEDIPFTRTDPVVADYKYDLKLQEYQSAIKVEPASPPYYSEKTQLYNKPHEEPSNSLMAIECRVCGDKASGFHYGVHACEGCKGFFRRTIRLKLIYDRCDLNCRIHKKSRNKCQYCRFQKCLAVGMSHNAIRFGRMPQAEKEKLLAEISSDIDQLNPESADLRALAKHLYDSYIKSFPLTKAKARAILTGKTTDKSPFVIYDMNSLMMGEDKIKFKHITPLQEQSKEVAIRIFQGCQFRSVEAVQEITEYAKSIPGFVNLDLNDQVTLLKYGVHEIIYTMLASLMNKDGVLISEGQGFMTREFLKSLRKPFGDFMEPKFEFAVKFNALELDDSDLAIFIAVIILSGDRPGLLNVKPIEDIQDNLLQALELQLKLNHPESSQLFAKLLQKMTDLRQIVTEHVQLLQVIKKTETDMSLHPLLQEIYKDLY
- assay remarks: Agonist activity at PPARgamma (unknown origin)
readout kind: EC50 (µM)
The answer is to be given in µM; state only the numeric part.

Request: Fill in: EC50 of CCCCc1nc(C(C)C)c(CC(=S)N2CCCC2)c(=O)n1Cc1ccc(-c2ccccc2-c2noc(=O)[nH]2)cc1 is ___
Result: 3.1
